// values below are reported Percent Effect
- ASSAY_TARGET: Shiga toxin 2 (Escherichia coli O157:H7) (UniProt P09385+P09386)
- ASSAY_METHOD_TEXT: E. coli 0.157:H7 Shiga Toxin SOP - stx2 screening assay
- Assay type: functional
- Parameters: scale not given: direction of the effect not stated beside the values
- TEST_CONDITIONS: 30 µM

>  <COMPOUND>
CCCn1[nH]cc/c1=N\C(=O)CN1CCc2c(nc(C(C)C)n2C)C1

>  <Percent Effect, %>
1.47

$$$$
>  <COMPOUND>
CS(=O)(=O)NC[C@]12COC[C@H]1CN(C(=O)c1ccoc1)C2

>  <Percent Effect, %>
-5.39

$$$$
>  <COMPOUND>
Cn1ccc(NC(=O)Cc2cccc(F)c2)n1

>  <Percent Effect, %>
-9.92

$$$$
>  <COMPOUND>
c1cnc(NC[C@@H]2CCC[C@@H]3CN(Cc4cc[nH]n4)C[C@@H]32)nc1

>  <Percent Effect, %>
-15

$$$$
>  <COMPOUND>
CN(C)C(=O)COC1COC2(CCN(S(C)(=O)=O)CC2)C1 (stereo unspecified)

>  <Percent Effect, %>
-11.5

$$$$
>  <COMPOUND>
CSc1nccn1-c1cccc(C(=O)NCc2nnc(C)n2C)c1

>  <Percent Effect, %>
19.7

$$$$

---

- ASSAY_TARGET: Proteasome subunit beta (Trypanosoma cruzi)
- ASSAY_METHOD_TEXT: Trypanosoma cruzi proteasome chymotrypsin-like activity (TcProtChymo) assay. Also: in the data most compounds retested in dose-response had high values.
- Format: functional
- Parameters: scale not given: direction of the effect not stated beside the values
- TEST_CONDITIONS: 9.37 µM
OUTCOME_MEASURE: Percent Effect

>  <MOLECULE>
c1ccc(CN2C[C@@H]3CCCO[C@@H]3[C@H](Nc3ccccn3)C2)nc1

>  <VALUE_MEASURED>
8.15%

$$$$
>  <MOLECULE>
O=C1N(c2cncnc2)CCC12CCCN(Cc1ccccn1)C2 (stereo unspecified)

>  <VALUE_MEASURED>
2.5%

$$$$
>  <MOLECULE>
Cc1ccc(N2CCO[C@H]3CN(Cc4cnn(C)c4)C[C@H]32)nn1

>  <VALUE_MEASURED>
18.4%

$$$$
>  <MOLECULE>
COc1c(Br)cc(Br)cc1CNC(C)Cn1cccn1 (stereo unspecified)

>  <VALUE_MEASURED>
1.01%

$$$$
>  <MOLECULE>
CCCN1C(=O)CC2(CCCNC2)C1=O (stereo unspecified)

>  <VALUE_MEASURED>
3.86%

$$$$
>  <MOLECULE>
NCC1(c2cccc(C(F)(F)F)c2)CCOCC1

>  <VALUE_MEASURED>
15.6%

$$$$
>  <MOLECULE>
Cc1cc(CN2C[C@@H]3CCCO[C@@H]3[C@H](Nc3ccccn3)C2)no1

>  <VALUE_MEASURED>
7.3%

$$$$
>  <MOLECULE>
c1cncc(CO[C@H]2CO[C@@]3(CCN(Cc4ccoc4)C3)C2)c1

>  <VALUE_MEASURED>
12.6%

$$$$
>  <MOLECULE>
Cc1cccc(CN2C[C@H](NS(C)(=O)=O)[C@@H]3OCCC[C@@H]32)n1

>  <VALUE_MEASURED>
0.513%

$$$$
>  <MOLECULE>
O=C(N[C@H]1CN[C@H]2CCCO[C@H]21)c1cscn1

>  <VALUE_MEASURED>
18.6%

$$$$
>  <MOLECULE>
Cc1noc(C)c1CN1CCOC2(CCCN(c3nccs3)C2)C1 (stereo unspecified)

>  <VALUE_MEASURED>
2.91%

$$$$

---

- ASSAY_TARGET: Shiga toxin 2 (Escherichia coli O157:H7) (UniProt P09385+P09386)
- ASSAY_METHOD_TEXT: E. coli 0.157:H7 Shiga Toxin SOP - stx2 screening assay
- Format: functional
- Design: scale not given: direction of the effect not stated beside the values
- TEST_CONDITIONS: 30 µM

>  <MOLECULE>
CNC(=O)Cc1ccc(NC(=O)NC(C)C(C)C)cc1 (stereo unspecified)

>  <Percent Effect, %>
-0.988

$$$$
>  <MOLECULE>
COC(=O)C(C)(C)NC(=O)C1CC(=O)N(C2CCCC2)C1 (stereo unspecified)

>  <Percent Effect, %>
-3.28

$$$$
>  <MOLECULE>
CC(C)S(=O)(=O)N1CCC(c2cc3n(n2)[C@@H](C(F)(F)F)C[C@@H](C)N3)C1 (stereo partly specified)

>  <Percent Effect, %>
-27.2

$$$$
>  <MOLECULE>
CC(C)NC(=O)Nc1ccc(CS(=O)(=O)C(C)(C)C)cc1

>  <Percent Effect, %>
0.4

$$$$
>  <MOLECULE>
Cc1ccc(NC(=O)N2CCOC(C)C2)cc1Cl (stereo unspecified)

>  <Percent Effect, %>
1.77

$$$$
>  <MOLECULE>
O=C(c1cccc2cccnc12)N1CCCN(c2cccnn2)CC1

>  <Percent Effect, %>
3.11

$$$$
>  <MOLECULE>
Cn1cc(CN2CC[C@H](O)[C@@H]2Cc2ccncc2)cn1

>  <Percent Effect, %>
-6.08

$$$$
>  <MOLECULE>
COc1ccc(NC(=O)CNc2cccc3c2CCCC3)c(OC)c1

>  <Percent Effect, %>
-28.6

$$$$
>  <MOLECULE>
Cc1ccccc1C(=O)NCc1ccc(N2CCNC(=O)C2)c(F)c1

>  <Percent Effect, %>
0.0326

$$$$
>  <MOLECULE>
CCc1ccc(CN2C[C@@H]3OCCN(c4ccnc(N(C)C)n4)[C@@H]3C2)o1

>  <Percent Effect, %>
-25.6

$$$$
>  <MOLECULE>
CN(C)[C@@H]1CCN(c2ncccn2)[C@H]1Cc1ccccc1

>  <Percent Effect, %>
-1.36

$$$$

---

// values below are reported Percent Effect
- ASSAY_TARGET: Shiga toxin 2 (Escherichia coli O157:H7) (UniProt P09385+P09386)
- ASSAY_METHOD_TEXT: E. coli 0.157:H7 Shiga Toxin SOP - stx2 screening assay
- Type: functional
- Set-up: scale not given: direction of the effect not stated beside the values
- TEST_CONDITIONS: 30 µM

>  <COMPOUND>
O=C(c1cccc(Cl)c1)N1CCCn2c(CN3CCCCC3)nnc2C1

>  <Percent Effect / %>
-13.3

$$$$
>  <COMPOUND>
COc1cc(C)nc(N2CCN(C(=O)CCc3nccs3)CC2)n1

>  <Percent Effect / %>
-3.5

$$$$
>  <COMPOUND>
Cc1ccoc1C(=O)NC1CCN(Cc2csc3c(F)cccc23)CC1

>  <Percent Effect / %>
-64.2

$$$$
>  <COMPOUND>
N#Cc1ccccc1OCCN1CCCC1Cn1cccn1 (stereo not drawn)

>  <Percent Effect / %>
2.91

$$$$
>  <COMPOUND>
Cc1cc(C(=O)N2Cc3ccccc3OC3(CCOCC3)C2)nc(N)n1

>  <Percent Effect / %>
3.58

$$$$
>  <COMPOUND>
O=C(NCCNc1ncccn1)C1CCN(CC(F)(F)F)CC1

>  <Percent Effect / %>
21.6

$$$$
>  <COMPOUND>
CN(C)C(=O)[C@@H]1C[C@@H]2CCN(Cc3nccs3)C[C@@H]2O1

>  <Percent Effect / %>
2.36

$$$$
>  <COMPOUND>
CCN1CCN(C2CCN(Cc3nc4ccccc4o3)CC2)C1=O

>  <Percent Effect / %>
21.6

$$$$
>  <COMPOUND>
CN(CC1CCCCC1)C(=O)c1ccc(-n2ncc(C#N)c2N)cc1

>  <Percent Effect / %>
-24.4

$$$$
>  <COMPOUND>
COc1ccccc1C1SCC(=O)Nc2n[nH]cc21 (stereo not drawn)

>  <Percent Effect / %>
5.55

$$$$
>  <COMPOUND>
CN(CC(=O)N1CCN(c2ncccn2)CC1)c1ccc(Cl)cn1

>  <Percent Effect / %>
-0.376

$$$$
>  <COMPOUND>
COCCN1C[C@H]2CC[C@@]3(N=C(C)N(CC4CC4)C3=O)[C@H]2C1

>  <Percent Effect / %>
-12.7

$$$$
>  <COMPOUND>
Cc1ccc(C2C3=C(COC3=O)Nc3[nH]nc(C)c32)cc1C (stereo not drawn)

>  <Percent Effect / %>
-11.4

$$$$
>  <COMPOUND>
Cc1cccc(CNC(CN2CCN(C)CC2)c2ccccc2)c1 (stereo not drawn)

>  <Percent Effect / %>
-5.1

$$$$
>  <COMPOUND>
O=C(Cc1ccsc1)N1CCC(n2nc(-c3ccco3)ccc2=O)CC1

>  <Percent Effect / %>
18.8

$$$$
>  <COMPOUND>
CC(C)(C)C(O)CN1CCN(C(=O)c2cccc3ncccc23)CC1 (stereo not drawn)

>  <Percent Effect / %>
-208

$$$$
>  <COMPOUND>
Cc1ncsc1C(=O)N1CCCN(Cc2cscn2)CC1

>  <Percent Effect / %>
16.9

$$$$
>  <COMPOUND>
Cc1ccccc1N1CC2(CCN(S(=O)(=O)c3cccs3)C2)CC1=O (stereo not drawn)

>  <Percent Effect / %>
-0.82

$$$$
>  <COMPOUND>
Cc1cc(C)n(C2CN(CC(O)c3ccc4c(c3)OCO4)C2)n1 (stereo not drawn)

>  <Percent Effect / %>
7.61

$$$$
>  <COMPOUND>
CN(C)C[C@H]1OC[C@@H]2CCN(C(=O)c3ccco3)C[C@@H]21

>  <Percent Effect / %>
-9.03

$$$$
>  <COMPOUND>
CC(C)c1nc(C2CCCN2C(=O)c2ccc(N(C)C)nn2)no1 (stereo not drawn)

>  <Percent Effect / %>
18.3

$$$$
>  <COMPOUND>
Cn1cnnc1C1CCCN(C(=O)c2ccccc2Cl)C1 (stereo not drawn)

>  <Percent Effect / %>
22.4

$$$$
>  <COMPOUND>
Cc1nn(C)c(N(C)C)c1CNCc1ccc(OCC(N)=O)cc1

>  <Percent Effect / %>
-11.7

$$$$
>  <COMPOUND>
Cn1cc(CN2CCCn3cnc(CN4CCCC4=O)c3C2)cn1

>  <Percent Effect / %>
-3.11

$$$$
>  <COMPOUND>
COCc1nc(CNC2CCSCC2)no1

>  <Percent Effect / %>
9.42

$$$$
>  <COMPOUND>
CCC(C)CNc1ccc2oc(COC)nc2c1 (stereo not drawn)

>  <Percent Effect / %>
-59.7

$$$$
>  <COMPOUND>
Cc1ccc2c(ccn2CCC(=O)O)c1

>  <Percent Effect / %>
-8.69

$$$$
>  <COMPOUND>
O=C(CCc1ccccc1)N1CCn2cc(Cn3cncn3)nc2C1

>  <Percent Effect / %>
-10

$$$$
>  <COMPOUND>
Cc1cc2c(=O)n3c(nc2s1)CCN(Cc1cnn(C)c1C)CC3

>  <Percent Effect / %>
8.81

$$$$
>  <COMPOUND>
Clc1ccc(OCCCN2CCN(c3cnccn3)CC2)cc1

>  <Percent Effect / %>
-6.97

$$$$
>  <COMPOUND>
CCc1ccc(C2CCCCCN2Cc2nc(CCOC)no2)o1 (stereo not drawn)

>  <Percent Effect / %>
-30.6

$$$$
>  <COMPOUND>
Cc1cc(C(=O)N2CCCC(n3cncn3)C2)c(C)n1C1CC1 (stereo not drawn)

>  <Percent Effect / %>
9.3

$$$$
>  <COMPOUND>
COCC1c2nnn(CC3CC3)c2CCN1C(=O)c1ccnnc1 (stereo not drawn)

>  <Percent Effect / %>
-8.58

$$$$
>  <COMPOUND>
Cn1c(CN2CCCC2)nnc1C1CCCN(C(=O)C2CCOCC2)C1 (stereo not drawn)

>  <Percent Effect / %>
-6.15

$$$$
>  <COMPOUND>
CCOc1ccc(C2CC(=O)Nc3c2c(=O)nc2sccn32)cc1 (stereo not drawn)

>  <Percent Effect / %>
-16.9

$$$$
>  <COMPOUND>
NC(=O)COc1cccc(C(=O)N2CCCC(n3cccn3)C2)c1 (stereo not drawn)

>  <Percent Effect / %>
-18.8

$$$$
>  <COMPOUND>
Cc1ccc2cc(CNCCCO)c(=O)[nH]c2c1

>  <Percent Effect / %>
-9.65

$$$$
>  <COMPOUND>
Cc1ccc2nc(C3CCN(CCO)CC3)nn2c1

>  <Percent Effect / %>
-3.64

$$$$
>  <COMPOUND>
O=C(c1cn(-c2cc(N3CCOCC3)ncn2)cn1)N1CCSCC1

>  <Percent Effect / %>
-38.5

$$$$
>  <COMPOUND>
Cc1nnc(CN2CCN(CC(O)c3cccc(F)c3)CC2)n1C (stereo not drawn)

>  <Percent Effect / %>
18.7

$$$$
>  <COMPOUND>
CSCc1cccc(S(=O)(=O)NCCCN2CCOCC2)c1

>  <Percent Effect / %>
-32.1

$$$$
>  <COMPOUND>
CNC(=O)CC1CC2(CCN(Cc3nccs3)CC2)c2ccccc21 (stereo not drawn)

>  <Percent Effect / %>
-4.71

$$$$
>  <COMPOUND>
O[C@H]1[C@H](n2cc(-c3ccccc3)nn2)c2ccccc2C12CCNCC2

>  <Percent Effect / %>
-10.9

$$$$
>  <COMPOUND>
COc1ccc(CNCc2ccc(N3CCCCC3)nc2)cc1OC

>  <Percent Effect / %>
-82.1

$$$$
>  <COMPOUND>
CN(Cc1nc(N)c2ccccc2n1)C1CCCN(c2cccnn2)C1 (stereo not drawn)

>  <Percent Effect / %>
-28.7

$$$$
>  <COMPOUND>
Cn1cc(CN2C[C@@H]3CN(Cc4ccoc4)CCO[C@@H]3C2)cn1

>  <Percent Effect / %>
-1.85

$$$$
>  <COMPOUND>
CN1CCC(NC(=O)NCCNc2ccccn2)CC1

>  <Percent Effect / %>
-5.67

$$$$
>  <COMPOUND>
O=C(NCCn1ccnc1)NCC(c1ccco1)N1CCCCC1 (stereo not drawn)

>  <Percent Effect / %>
22.2

$$$$
